test system: AsPC-1 cells; assay: AsPC-1 cell proliferation assay (CellTiter Glo); type: cell-based; settings: Homo sapiens, ASPC1, 144 h, 6 days
Listing of entries alongside the reported IC50.

Answered cases to consult:
>  <compound>
CO[C@H]1C[C@H](Oc2nc(N3CCCNCC3)c3cc(C4CC4)c(-c4c(C)c(F)cc5[nH]ncc45)c(OCc4ccc(-c5cn([C@H](C(=O)N6C[C@H](O)C[C@H]6C(=O)N[C@@H](CO)c6ccc(-c7scnc7C)cc6)C(C)C)nn5)cc4)c3n2)C1

>  <observed value>
< 10 nM

$$$$
>  <compound>
Cc1ncsc1-c1ccc([C@@H](NC(=O)[C@@H]2C[C@@H](O)CN2C(=O)[C@H](C(C)C)n2cc(-c3ccc(COc4c(-c5c(C)c(F)cc6[nH]ncc56)c(C5CC5)cc5c(N6C[C@@H]7C[C@H]6CN7)nc(OC6CCOCC6)nc45)cc3)nn2)[C@H](C)O)cc1

>  <observed value>
< 10 nM

$$$$
>  <compound>
CCn1nccc1-c1ccc([C@H](CO)NC(=O)[C@@H]2C[C@@H](O)CN2C(=O)[C@H](C(C)C)n2cc(-c3ccc(COc4c(-c5c(C)c(F)cc6[nH]ncc56)c(C5CC5)cc5c(N6C[C@@H]7C[C@H]6CN7)nc(OCC6(CC(F)F)CC6)nc45)cc3)nn2)cc1

>  <observed value>
< 10 nM

$$$$
>  <compound>
CCn1nccc1-c1ccc([C@H](CO)NC(=O)[C@@H]2C[C@@H](O)CN2C(=O)[C@H](C(C)C)n2cc(-c3ccc(COc4c(-c5c(C)c(F)c(F)c6[nH]ncc56)c(C5CC5)cc5c(N6C[C@@H]7C[C@H]6CN7)nc(OC[C@H](C)OC)nc45)cc3)nn2)cc1

>  <observed value>
< 10 nM

$$$$
>  <compound>
CCn1nccc1-c1ccc([C@H](CO)NC(=O)[C@@H]2C[C@@H](O)CN2C(=O)[C@H](C(C)C)n2cc(-c3ccc(COc4c(-c5c(C)c(F)cc6[nH]ncc56)c(C5CC5)cc5c(N6CCCNCC6)nc(OC[C@H](C)OC)nc45)cc3)nn2)cc1

>  <observed value>
< 10 nM

$$$$

q: Record request: IC50 value, item CCn1nccc1-c1ccc([C@H](CO)NC(=O)[C@@H]2C[C@@H](O)CN2C(=O)[C@H](C(C)C)n2cc(-c3ccc(COc4c(-c5c(C)c(F)cc6[nH]ncc56)c(C5CC5)cc5c(N6C[C@H]7C[C@@H]6CN7)nc(OC6CCOCC6)nc45)cc3)nn2)cc1 (stereo in doubt)
a: 10 to 100 nM
